experiment: Half life in BALB/c mouse at 10 nmol measured for 8 hrs; type: ADME; conditions: in vivo
PROPERTY MEASURED: half-life (min)
Reply with just the number (in min).

Entry under test: `CC1(C)C(/C=C/C2=C(Oc3ccc(C[C@H](NC(=O)c4ccc(CCCCc5cc6c(=O)[nH]c(N)nc6[nH]5)cc4)C(=O)O)cc3)C(=C/C=C3/N(CCCCS(=O)(=O)O)c4ccccc4C3(C)C)/CCC2)=[N+](CCCCS(=O)(=O)[O-])c2ccccc21` . Its half-life was 15
